Target: T1, rat hypothalamic Y5 receptor (rat)
T1 chain: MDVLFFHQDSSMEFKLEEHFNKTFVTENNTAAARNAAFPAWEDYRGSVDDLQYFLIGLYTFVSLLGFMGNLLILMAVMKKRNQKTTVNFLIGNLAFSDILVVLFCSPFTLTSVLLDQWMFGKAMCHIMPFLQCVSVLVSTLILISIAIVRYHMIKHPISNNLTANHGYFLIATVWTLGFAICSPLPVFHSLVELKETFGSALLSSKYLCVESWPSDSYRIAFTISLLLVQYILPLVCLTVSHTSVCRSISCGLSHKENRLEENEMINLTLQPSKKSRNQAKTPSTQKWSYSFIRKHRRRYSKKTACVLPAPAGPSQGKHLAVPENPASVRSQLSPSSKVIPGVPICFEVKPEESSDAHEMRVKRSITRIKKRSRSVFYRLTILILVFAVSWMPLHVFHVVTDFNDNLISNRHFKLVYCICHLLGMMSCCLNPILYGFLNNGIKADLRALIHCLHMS
Assay: 125I-PYY displacement, COS-7 membranes
Ends that are not written are not given here.
Ki vs 200 nM: less than gives criterion met; not less than gives criterion not met.

>>> discrete_label("TPEQMAQYAADLRRYINMLTRPRY [human PP13-36]")
"criterion not met"
>>> discrete_label("APLEPMYPGDYATHEQRAQYETQLRRYINTLTRPRY [rat PP]")
"criterion not met"
>>> discrete_label("SALRHYINLITRQRY (ends and bridges not checked) [porcine NPY22-36]")
"criterion not met"
>>> discrete_label("APLEPVYPGDNATPEQMAQYAADLRRYINMLTRPRY [human PP]")
"criterion met"
>>> discrete_label("DLARYYSALRHYINLITRQRY (ends and bridges not checked) [porcine NPY16-36]")
"criterion not met"
>>> discrete_label("ARYYSALRHYINLITRQRY (ends and bridges not checked) [porcine NPY18-36]")
"criterion not met"
>>> discrete_label("PLEPVY [human PP31-36]")
"criterion not met"
>>> discrete_label("APLEPEYPGDNATPEQMAQYAAELRRYINMLTRPRY [bovine PP]")
"criterion met"
